Target: His6SumoMBP-U2AF1;U2AF2 (human;human, UniProt Q01081;P26368-2 1-188;85-471, C67S|)
Sequence (Q01081 1-188 C67S, chain 1 of 2): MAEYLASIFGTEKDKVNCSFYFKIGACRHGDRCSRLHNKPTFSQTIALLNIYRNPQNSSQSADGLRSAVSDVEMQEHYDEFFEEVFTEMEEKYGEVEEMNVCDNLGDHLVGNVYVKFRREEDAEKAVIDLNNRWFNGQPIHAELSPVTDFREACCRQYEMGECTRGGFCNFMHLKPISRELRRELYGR
Sequence (P26368 other isoform, or with tags, fused parts or gaps C67S|, chain 2 of 2): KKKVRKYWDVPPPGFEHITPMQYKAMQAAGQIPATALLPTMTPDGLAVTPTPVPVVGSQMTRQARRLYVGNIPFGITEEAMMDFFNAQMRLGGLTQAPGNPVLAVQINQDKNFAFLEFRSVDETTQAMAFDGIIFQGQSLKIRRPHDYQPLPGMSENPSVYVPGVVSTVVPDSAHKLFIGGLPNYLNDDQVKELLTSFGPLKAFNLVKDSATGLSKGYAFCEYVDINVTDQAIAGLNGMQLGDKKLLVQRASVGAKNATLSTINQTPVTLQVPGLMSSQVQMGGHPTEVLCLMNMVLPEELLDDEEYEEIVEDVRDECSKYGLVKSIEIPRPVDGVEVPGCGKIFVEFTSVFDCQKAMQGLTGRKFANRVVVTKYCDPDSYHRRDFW
Assay: fluorescence anisotropy; Anisotropy: 150 mM NaCl, 25 mM HEPES pH 6.8, 0.5 mM TCEP, 3% glycerol, 20 uM ZnCl2, 0.2 U/ul SUPERase-In; smFRET: 25 mM HEPES pH 7.0, 150 mM KCl, 0.01% octaethylene glycol monododecyl ether, 0.2 mM TCEP, 6 mM BME, 1.5 mM Trolox, oxygen scavenger, room temperature, excess U2AF1 (1000 nM) with heterodimer
Conditions: protein: recombinant;recombinant; tags: N-terminal His6-SUMO-MBP with AAA linker; C-terminal extra Ala;GST cleaved by PreScission; copies: 1;1; label: 5'-fluorescein
property.label: Kd (nM)
Give just the number in nM; leave the unit off.

Problem: Consider the binder shown here: CUGUCCCUUUUUUUUCACAGCUCGCGGUUGAG (ssRNA) [Fl-AdML] What is its recorded Kd?
Result: 120
